Tested on: HCT-116 cells (colon)
Test: MTT cell viability assay, HCT-116
Assay type: cell-based
Conditions: Homo sapiens, HCT-116; 48 h, MTT, mean ± SD; read-out: IC50 HCT-116 (colon)
Reported Endpoint: pIC50
A value of pIC50 is the negative decimal logarithm of a concentration given in moles per litre.

N#Cc1ccc(NC(=[Se])NCc2ccco2)cc1 [Compound 1e] | 5.04
COc1ccc(NC(=[Se])NC23CC4CC(CC(C4)C2)C3)cc1 [Compound 6c] | 5.44
N#Cc1ccc(NC(=[Se])NC23CC4CC(CC(C4)C2)C3)cc1 [Compound 6e, N´-Adamanty-N-(4-cyanophenyl)selenourea] | 5.27
Clc1ccc(NC(=[Se])NC23CC4CC(CC(C4)C2)C3)cc1 [Compound 6d] | 5.16
Clc1ccc(NC(=[Se])NCc2ccco2)cc1 [Compound 1d] | 5.11

State pIC50 on HCT-116 cells (colon). Entry: O=c1ccc2cc(NC(=[Se])Nc3ccccc3)ccc2o1 [Compound 3a]
5.23

State pIC50 on HCT-116 cells (colon). Entry: Cc1ccc(NC(=[Se])NC23CC4CC(CC(C4)C2)C3)cc1 [Compound 6b]
5.20

---

Test system: MCF-7 cells (breast adenocarcinoma)
Experiment: MTT cell viability assay, MCF-7
Type: cell-based, human
Conditions: IC50 (184B5)/IC50 (MCF-7)
Collected SI (selectivity index) breast values appear next to each entry.
Answer as a number with no unit attached.

// known answers, use as guide
N#Cc1ccc(NC(=[Se])NCc2ccco2)cc1 [Compound 1e] | 0.81
COc1ccc(NC(=[Se])NC23CC4CC(CC(C4)C2)C3)cc1 [Compound 6c] | 1.46
Clc1ccc(NC(=[Se])NC23CC4CC(CC(C4)C2)C3)cc1 [Compound 6d] | 2.22
[Se]=C(NCc1nccs1)Nc1ccccc1 [Compound 2a] | 1.20
Cc1ccc(NC(=[Se])NC23CC4CC(CC(C4)C2)C3)cc1 [Compound 6b] | 2.21

Quote SI (selectivity index) breast reported for N#Cc1ccc(NC(=[Se])NC23CC4CC(CC(C4)C2)C3)cc1 [Compound 6e, N´-Adamanty-N-(4-cyanophenyl)selenourea] please.
1.41

Quote SI (selectivity index) breast reported for [Se]=C(Nc1ccccc1)NC12CC3CC(CC(C3)C1)C2 [Compound 6a, N´-adamantyl-N-(phenyl)selenourea] please.
2.25

---

Test system: HTB-54 cells (lung adenocarcinoma)
Experiment: MTT cell viability assay, HTB-54
Type: cell-based, human
Settings: IC50 (BEAS-2B)/IC50 (HTB-54)
Reported Endpoint: SI (selectivity index) lung

// known answers, use as guide
Clc1ccc(NC(=[Se])NCc2nccs2)cc1 [Compound 2d] | 0.60
Clc1ccc(NC(=[Se])NC23CC4CC(CC(C4)C2)C3)cc1 [Compound 6d] | 1.16
Cc1ccc(NC(=[Se])NC23CC4CC(CC(C4)C2)C3)cc1 [Compound 6b] | 0.83
COc1ccc(NC(=[Se])NC23CC4CC(CC(C4)C2)C3)cc1 [Compound 6c] | 0.93
N#Cc1ccc(NC(=[Se])NCc2ccco2)cc1 [Compound 1e] | 0.61

Lab note: next compound to report on.
Quote SI (selectivity index) lung reported for N#Cc1ccc(NC(=[Se])NC23CC4CC(CC(C4)C2)C3)cc1 [Compound 6e, N´-Adamanty-N-(4-cyanophenyl)selenourea] please.
0.39
